protocolSummary: Inhibition of passively-transferred EAE in rats, parenteral treatment
Assay type: in vivo, Lewis rats
experimentalConditions: Table 1; t.i.d. s.c., seven days; 220 mg/kg/day (mannose 6-P) or 200 mg/kg/day (others); controls 2.8 (saline), 3.3 (PEG 200)
# Lookup of reported Mean Maximum clinical score keyed by entry

Below: 2 compounds and their reported Mean Maximum clinical score.
{"columns": ["compound", "readoutType", "endpointResult"],
 "data": [
  ["O=P(O)(O)OC[C@H]1OC(OCCCCCCCCCCCCCCCCOC2O[C@H](COP(=O)(O)O)[C@@H](O)[C@H](O)[C@@H]2O)[C@@H](O)[C@@H](O)[C@@H]1O (stereo partly shown)", "Mean Maximum clinical score", 0],
  ["CCCCCCCCCCOC1O[C@H](COP(=O)(O)O)[C@@H](O)[C@H](O)[C@@H]1O (stereo partly drawn) [decyl mannoside 6-P, Decyl D-mannoside 6-phosphate]", "Mean Maximum clinical score", 0]
]}

Input: Recorded Mean Maximum clinical score for CCCCCCCCCCCCCCCCOC1O[C@H](COP(=O)(O)O)[C@@H](O)[C@H](O)[C@@H]1O (stereo partly drawn) [hexadecyl mannoside 6-P, hexadecyl D-mannoside 6-phosphate] , please?
Output: 0

Input: What measured Mean Maximum clinical score goes with O=P(O)(O)OC[C@H]1OC(O)[C@@H](O)[C@@H](O)[C@@H]1O (stereo partly drawn) [mannose-6-phosphate, D-mannose-6-phosphate, reference compound] ?
Output: 2.8

====

protocolSummary: Inhibition of passively-transferred EAE in rats, parenteral treatment
Format: in vivo, Lewis rats
experimentalConditions: Table 1; t.i.d. s.c., seven days, n=5; 220 mg/kg/day (mannose 6-P) or 200 mg/kg/day (others)
% with clinical signs of EAE for assorted compounds
Hi! Could you send only the number? It should be in %, unit omitted.

{"columns": ["compound", "unitLabel", "endpointResult"],
 "data": [
  ["CCCCCCCCCCOC1O[C@H](COP(=O)(O)O)[C@@H](O)[C@H](O)[C@@H]1O (stereo partly drawn) [decyl mannoside 6-P, Decyl D-mannoside 6-phosphate]", "%", 0],
  ["O=P(O)(O)OC[C@H]1OC(OCCCCCCCCCCCCCCCCOC2O[C@H](COP(=O)(O)O)[C@@H](O)[C@H](O)[C@@H]2O)[C@@H](O)[C@@H](O)[C@@H]1O (stereo partly shown)", "%", 0],
  ["CCCCCCCCCCCCCCCCOC1O[C@H](COP(=O)(O)O)[C@@H](O)[C@H](O)[C@@H]1O (stereo partly drawn) [hexadecyl mannoside 6-P, hexadecyl D-mannoside 6-phosphate]", "%", 0]
]}

Input: Value lookup for % with clinical signs of EAE; key = O=P(O)(O)OC[C@H]1OC(O)[C@@H](O)[C@@H](O)[C@@H]1O (stereo partly drawn) [mannose-6-phosphate, D-mannose-6-phosphate, reference compound]
Output: 100

Every entry's value here was drawn from patent US6294521A.
